Where these numbers come from: ChEMBL document CHEMBL1135890

- Tested on: Human immunodeficiency virus 1
- protocolSummary: Anti-HIV activity was determined
- Format: functional, organism-based
Property: EC50; scope: individual compounds

- compound: "Nc1nc(=O)n([C@@H]2O[C@H](CO)C=C2F)cc1F (stereo in doubt; 30)"
  readoutUnit: "µM"
  relationSymbol: "="
  EC50: 0.82
- compound: "Nc1nc(Cl)c2ncn([C@@H]3O[C@H](CO)C=C3F)c2n1 (stereo in doubt; 13)"
  readoutUnit: "µM"
  relationSymbol: ">"
  EC50: 75
- compound: "Nc1nc(O)c2ncn([C@@H]3O[C@H](CO)C=C3F)c2n1 (stereo in doubt; 19)"
  readoutUnit: "µM"
  relationSymbol: "="
  EC50: 18.3
- compound: "Nc1nc(Cl)c2ncn([C@@H]3O[C@H](CO)C=C3F)c2n1 (stereo in doubt; 11)"
  readoutUnit: "µM"
  relationSymbol: "="
  EC50: 4.3
- compound: "Nc1ccn([C@@H]2O[C@H](CO)C=C2F)c(=O)n1 (stereo in doubt; 28)"
  readoutUnit: "µM"
  relationSymbol: "="
  EC50: 2.6
- compound: "Nc1nc(=O)n([C@@H]2O[C@H](CO)C=C2F)cc1F (stereo in doubt; 31)"
  readoutUnit: "µM"
  relationSymbol: ">"
  EC50: 100
- compound: "Nc1ncnc2c1ncn2[C@@H]1O[C@H](CO)C=C1F (stereo in doubt; 14)"
  readoutUnit: "µM"
  relationSymbol: "="
  EC50: 0.44
- compound: "Nc1ncnc2c1ncn2[C@@H]1O[C@H](CO)C=C1F (stereo in doubt; 15)"
  readoutUnit: "µM"
  relationSymbol: ">"
  EC50: 100
- compound: "Nc1ccn([C@@H]2O[C@H](CO)C=C2F)c(=O)n1 (stereo in doubt; 29)"
  readoutUnit: "µM"
  relationSymbol: ">"
  EC50: 100

----------
- protocolSummary: Anti-HIV activity against human peripheral blood mononuclear (PBM) cell lines infected with XxBRU Pitt (FTC sensitive isolate)
- Assay type: functional
resultType: EC50

- compound: "Nc1ncnc2c1ncn2[C@@H]1O[C@H](CO)C=C1F (stereo in doubt; 14)"
  result: "460 nM"
- compound: "OC[C@@H]1C=C(F)[C@H](n2cnc3c(O)ncnc32)O1"
  result: "2800 nM"
- compound: "Nc1nc(=O)n([C@@H]2O[C@H](CO)C=C2F)cc1F (stereo in doubt; 30)"
  result: "3100 nM"
- compound: "Cc1cn([C@H]2C[C@H](N=[N+]=[N-])[C@@H](CO)O2)c(=O)[nH]c1=O"
  result: "5 nM"

----------
- protocolSummary: Toxicity against human peripheral blood mononuclear (PBM) cells
- settings: human, peripheral blood mononuclear (PBM) cells, IC50
Each entry below lists one item and its recorded IC50 value.

- molecule: "Nc1ncnc2c1ncn2[C@@H]1O[C@H](CO)C=C1F (stereo in doubt; 15)"
  IC50: "> 100 µM"
- molecule: "Nc1nc(O)c2ncn([C@@H]3O[C@H](CO)C=C3F)c2n1 (stereo in doubt; 19)"
  IC50: "> 100 µM"
- molecule: "Nc1nc(F)nc2c1ncn2[C@H]1O[C@H](CO)C=C1F"
  IC50: "41.2 µM"
- molecule: "Cc1cn([C@H]2C[C@H](N=[N+]=[N-])[C@@H](CO)O2)c(=O)[nH]c1=O"
  IC50: "> 100 µM"
- molecule: "Nc1nc(=O)n([C@@H]2O[C@H](CO)C=C2F)cc1F (stereo in doubt; 30)"
  IC50: "> 100 µM"
- molecule: "OC[C@@H]1C=C(F)[C@@H](n2cnc3c(O)ncnc32)O1"
  IC50: "> 100 µM"
- molecule: "Nc1nc(N)c2ncn([C@@H]3O[C@H](CO)C=C3F)c2n1"
  IC50: "> 100 µM"
- molecule: "Nc1nc(N)c2ncn([C@@H]3O[C@@H](CO)C=C3F)c2n1"
  IC50: "> 100 µM"
- molecule: "Cc1cn([C@@H]2O[C@H](CO)C=C2F)c(=O)nc1N"
  IC50: "> 100 µM"
- molecule: "Nc1nc(Cl)c2ncn([C@@H]3O[C@H](CO)C=C3F)c2n1 (stereo in doubt; 13)"
  IC50: "77.4 µM"
- molecule: "OC[C@@H]1C=C(F)[C@H](n2cnc3c(O)ncnc32)O1"
  IC50: "92.7 µM"
- molecule: "Nc1nc(F)nc2c1ncn2[C@@H]1O[C@H](CO)C=C1F"
  IC50: "> 100 µM"

----------
- Test system: Vero
- protocolSummary: Cytotoxicity against Vero cells was determined.
- Type: cell-based
- settings: Chlorocebus sabaeus

- molecule: "Nc1nc(N)c2ncn([C@@H]3O[C@@H](CO)C=C3F)c2n1"
  IC50: "> 100 µM"
- molecule: "Cc1cn([C@@H]2O[C@H](CO)C=C2F)c(=O)nc1N"
  IC50: "> 100 µM"
- molecule: "OC[C@@H]1C=C(F)[C@H](n2cnc3c(O)ncnc32)O1"
  IC50: "87.7 µM"
- molecule: "Nc1nc(F)nc2c1ncn2[C@H]1O[C@H](CO)C=C1F"
  IC50: "16.1 µM"
- molecule: "Nc1nc(Cl)c2ncn([C@@H]3O[C@H](CO)C=C3F)c2n1 (stereo in doubt; 13)"
  IC50: "> 100 µM"
- molecule: "Nc1ncnc2c1ncn2[C@@H]1O[C@H](CO)C=C1F (stereo in doubt; 15)"
  IC50: "> 100 µM"
- molecule: "OC[C@@H]1C=C(F)[C@@H](n2cnc3c(O)ncnc32)O1"
  IC50: "> 100 µM"
- molecule: "Nc1nc(N)c2ncn([C@@H]3O[C@H](CO)C=C3F)c2n1"
  IC50: "> 100 µM"
- molecule: "Nc1nc(O)c2ncn([C@@H]3O[C@H](CO)C=C3F)c2n1 (stereo in doubt; 19)"
  IC50: "> 100 µM"
- molecule: "Nc1nc(F)nc2c1ncn2[C@@H]1O[C@H](CO)C=C1F"
  IC50: "> 100 µM"
- molecule: "Nc1nc(=O)n([C@@H]2O[C@H](CO)C=C2F)cc1F (stereo in doubt; 30)"
  IC50: "> 100 µM"
- molecule: "Nc1ccn([C@@H]2O[C@H](CO)C=C2F)c(=O)n1 (stereo in doubt; 29)"
  IC50: "> 100 µM"

----------
- protocolSummary: Anti-HIV activity against human peripheral blood mononuclear (PBM) cell lines infected with M184V Pitt (FTC resistant isolate)
- Assay type: functional
pEC50: −log10 of the molar value.
We use 6 as the dividing line for pEC50: on or above the line is rule met, below is rule not met.

- compound: "Cc1cn([C@H]2C[C@H](N=[N+]=[N-])[C@@H](CO)O2)c(=O)[nH]c1=O"
  cat: "rule met"
- compound: "Nc1nc(=O)n([C@@H]2O[C@H](CO)C=C2F)cc1F (stereo in doubt; 30)"
  cat: "rule not met"
- compound: "Nc1nc(O)c2ncn([C@@H]3O[C@H](CO)C=C3F)c2n1 (stereo in doubt; 18)"
  cat: "rule not met"
- compound: "OC[C@@H]1C=C(F)[C@H](n2cnc3c(O)ncnc32)O1"
  cat: "rule not met"

----------
- protocolSummary: Half life was determined.
- Format: ADME
resultType: half-life (min)

- molecule: "Nc1ncnc2c1ncn2[C@@H]1O[C@H](CO)[C@@H](O)[C@H]1O"
  quantitativeResult: 0.417
- molecule: "Nc1ncnc2c1ncn2[C@@H]1O[C@H](CO)C=C1F (stereo in doubt; 14)"
  quantitativeResult: 41.6

----------
- Test system: CCRF-CEM
- protocolSummary: Cytotoxicity against CEM cells was determined.
- Type: functional, cell-based
- settings: Homo sapiens

- compound: "Nc1ncnc2c1ncn2[C@@H]1O[C@H](CO)C=C1F (stereo in doubt; 14)"
  readoutUnit: "µM"
  IC50: 57.6

----------
- protocolSummary: Half life at pH 2.0
- Format: ADME
- settings: buffer

- compound: "Nc1ncnc2c1ncn2[C@@H]1O[C@H](CO)C=C1F (stereo in doubt; 14)"
  half-life / h: 72
